molecular target: SRBD subdomain of SARS-CoV-2 S protein (SARS-CoV-2, UniProt P0DTC2 319-541); assay: ELISA, purified IgG
OD 450 nm values for the binders below.
Endpoint label: OD 450 nm (OD 450 nm)

Binder	Recorded measurement
COV2-2082 (antibody, V domains shown) VH: EVQLVESGGGVVRPGGSLRLSCAASGFIFDDYDMTWVRQAPGKGLEWVSGISWNGGNTGYADSVKGRFTISRDNAKNSLYLQMNSLRAEDTALYHCAVIMSPIPRYSGYDWAGGAFDIWGQGTMVTVSS VL: SSELTQDPAVSVALGQTVRITCQGDSLRSYYASWYQQKPGQVPILVIYDKNNRPSGIPDRFSGSSSGNTASLTITGAQAEDEADYYCNSRDSSGNAVVFGGGTKLTVL	4.3
COV2-2068 (antibody, V domains shown) VH: EVQLVESGGGLVQPGGSLRLSCAASGFTVSSNYMSWVRQAPGKGLEWVSVIYPGGSAFYADSVKGRFTISRHNSNNTLCLQMNSLRTEDTAVYYCARSYDILTGYRDAFDIWGQGTMVTVSS VL: QSVLTQPPSVSGAPGQRVTISCTGSSSNIGSGSDVHWYQQLPGTAPKLLIYGNTNRPSGVPDRFSGSKSGTSASLAITGLQAEDEADYYCQSYDSRLSGFVVFGGGTKLTVL	4.3
COV2-2098 (antibody, V domains shown) VH: EVQLLESGGGLIQPGGSLRLSCAASGFTFSNYAMSWVRQAPGKGLEWVSGIISTSGGATYNADSVRGRFTTSRDNSKNILYLQMNSLRGEDTAVYYCVKGLFDWFPLWGQGTMVTVSS VL: DIVMTQSPATLSVSPGERAILSCRASQSVRSNLAWYQQKPGQAPRLLISGASTRATAIPARFSGSGSGTEFTLTITSLQSEDCAVYYCHQYNNWPQTFGQGTKVEIK	4.2
